Listed next: entries and their corresponding log10 of IC50.
- Test system: Human Pancreatic Carcinoma Cells (PANC-1)
- Procedure Summary: Tumor cell proliferation assay (MTT), PANC-1
- Assay type: cell-based
- Condition Info: secondary screening, 48 hours
For clarity, the numbers are log10 values of IC50 expressed in µM.

A selection of reference data follows.
Molecule	Reported Endpoint	Experimental Value
CCN(CC)CC(O)CNC(=O)c1c(C)[nH]c2c1CCC/C2=C1/C(=O)Nc2ccccc21 (centres unmarked) [I-63]	log10 of IC50	-0.18
Cc1[nH]c2c(c1C(=O)NCCCN(C)C)CCC/C2=C1/C(=O)Nc2ccc(Cl)cc21 [I-7]	log10 of IC50	0.82
CCN(CC)CCNC(=O)c1c(C)[nH]c2c1CCC/C2=C1/C(=O)Nc2ccc(Cl)cc21 [I-3]	log10 of IC50	0.29
Cc1[nH]c2c(c1C(=O)NCC(O)CN1CCCCC1)CCC/C2=C1/C(=O)Nc2ccc(Cl)cc21 (centres unmarked) [I-75]	log10 of IC50	0.55
CCN(CC)CC(O)CNC(=O)c1c(C)[nH]c2c1CCC/C2=C1/C(=O)Nc2ccc(Cl)cc21 (centres unmarked) [I-65]	log10 of IC50	0.22

input: GET /values?readout=log10 of IC50&system=Human Pancreatic Carcinoma Cells (PANC-1)&item= Cc1[nH]c2c(c1C(=O)NCC(O)CN1CCCC1)CCC/C2=C1/C(=O)Nc2ccccc21 (centres unmarked) [I-70]
output: 0.21

input: Under Human Pancreatic Carcinoma Cells (PANC-1): log10 of IC50 value of Cc1[nH]c2c(c1C(=O)NCC(O)CN1CCCC1)CCC/C2=C1/C(=O)Nc2ccc(F)cc21 (centres unmarked) [I-71] ?
output: 0.17

input: Missing value: log10 of IC50, Human Pancreatic Carcinoma Cells (PANC-1), entry Cc1[nH]c2c(c1C(=O)NCC(O)CN1CCN(C)CC1)CCC/C2=C1/C(=O)Nc2ccc(F)cc21 (centres unmarked) [I-77] . Fill in?
output: 0.74

###

- Tested on: Human Non-Small Cell Lung Cancer Cell Line (A549)
- Procedure Summary: Tumor cell proliferation assay (MTT), A549
- Format: cell-based
- Condition Info: concentration of 10^−5 mol/L, preliminary screening, 72 hours, read-out: Inhibition rate % A549
// reported inhibition at 10 µM per item
Write the value in % as a bare number.

# annotated cases, reported inhibition at 10 µM shown
Molecule	Experimental Value
Cc1ccc2c(c1)/C(=C1\CCCc3c1[nH]c(C)c3C(=O)NCC(O)CN(C)C1CCCCC1)C(=O)N2 (stereo not drawn)	63.3
CCN(CC)CCNC(=O)c1c(C)[nH]c2c1CCC/C2=C1/C(=O)Nc2ccc(F)cc21	10.2
Cc1[nH]c2c(c1C(=O)N1CCN(C)CC1)CCC/C2=C1/C(=O)Nc2ccccc21	3.82
CCN(CC)CCNC(=O)c1c(C)[nH]c2c1CCC/C2=C1/C(=O)Nc2ccc(Cl)cc21	55.5
Cc1[nH]c2c(c1C(=O)N1CCOCC1)CCC/C2=C1/C(=O)Nc2ccccc21	1.1
Cc1[nH]c2c(c1C(=O)NCC(O)CN1CCOCC1)CCC/C2=C1/C(=O)Nc2ccc(F)cc21 (stereo not drawn)	61.1
Cc1[nH]c2c(c1C(=O)NCC(O)CN1CCN(C)CC1)CCC/C2=C1/C(=O)Nc2ccccc21 (stereo not drawn)	64.5
CCN(CC)CCNC(=O)c1c(C)[nH]c2c1CCC/C2=C1/C(=O)Nc2ccc(C)cc21	67.5

input: Requested field: inhibition at 10 µM. Item: Cc1[nH]c2c(c1C(=O)NCC(O)CN1CCCC1)CCC/C2=C1/C(=O)Nc2ccc(Cl)cc21 (stereo not drawn)
output: 81.2

input: Record request: inhibition at 10 µM value, item Cc1[nH]c2c(c1C(=O)NCC(O)CN1CCCC1)CCC/C2=C1/C(=O)Nc2ccc(F)cc21 (stereo not drawn)
output: 71.7
